Reference source for all entries: ChEMBL document CHEMBL5360622

targetUnderTest: Dual specificity tyrosine-phosphorylation-regulated kinase 2 (Homo sapiens)
Sequence (Q92630 whole entry): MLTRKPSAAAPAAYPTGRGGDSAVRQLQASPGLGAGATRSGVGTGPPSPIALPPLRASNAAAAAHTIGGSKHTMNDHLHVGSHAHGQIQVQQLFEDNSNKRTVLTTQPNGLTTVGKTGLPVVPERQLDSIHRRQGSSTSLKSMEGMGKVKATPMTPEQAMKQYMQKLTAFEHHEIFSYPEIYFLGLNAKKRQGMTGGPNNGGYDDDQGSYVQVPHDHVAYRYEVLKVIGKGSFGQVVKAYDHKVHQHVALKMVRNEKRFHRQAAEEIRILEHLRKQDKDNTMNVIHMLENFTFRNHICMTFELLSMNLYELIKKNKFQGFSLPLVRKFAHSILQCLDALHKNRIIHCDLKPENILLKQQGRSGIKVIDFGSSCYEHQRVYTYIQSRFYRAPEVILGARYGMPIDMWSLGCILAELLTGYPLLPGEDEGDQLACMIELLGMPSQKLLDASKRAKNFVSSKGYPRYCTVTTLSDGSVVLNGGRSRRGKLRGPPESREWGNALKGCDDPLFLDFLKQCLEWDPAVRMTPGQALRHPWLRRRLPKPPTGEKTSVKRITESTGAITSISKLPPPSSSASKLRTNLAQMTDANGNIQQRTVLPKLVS
// values below are reported log10 of IC50
# log10 transformed; quantity=IC50; unit=nM

Sample answers from the record:
molecule	measurementLabel	testValue
CC[C@@H](CO)NC1=N/C(=C\c2ccc3ncsc3c2)C(=O)N1	log10 of IC50	3.24
O=C1NC(N[C@@H]2CCC[C@H]2O)=N/C1=C\c1ccc2ncsc2c1 (racemic)	log10 of IC50	2.67
C[C@@H]1CCCC[C@H]1NC1=N/C(=C\c2ccc3ncsc3c2)C(=O)N1 (racemic)	log10 of IC50	2.74
CN1CCN(c2ccc(NC3=N/C(=C\c4ccc5c(c4)OCCO5)C(=O)N3)cc2)CC1	log10 of IC50	0.90
COC(=O)[C@@H](CC(C)C)NC1=N/C(=C\c2ccc3ncsc3c2)C(=O)N1	log10 of IC50	3.37

Prompt line: State its log10 of IC50 on Dual specificity tyrosine-phosphorylation-regulated kinase 2 (Homo sapiens): "O=C1NC(NCCc2ccccn2)=N/C1=C\c1ccc2ncsc2c1"
Response line: 3.13

Prompt line: Try the molecule "O=C1NC(NC23CC4CC(CC(C4)C2)C3)=N/C1=C\c1ccc2c(c1)OCO2"
Response line: 2.26

Prompt line: Try the molecule CN1CC[C@@](C)(NC2=N/C(=C\c3ccc4ncsc4c3)C(=O)N2)C1=O (stereo in doubt)
Response line: 2.90

Prompt line: Try the molecule "CC(C)C[C@@H](CO)NC1=N/C(=C\c2ccc3ncsc3c2)C(=O)N1"
Response line: 3.70

Prompt line: Try the molecule "O=C1NC(NC23CC4(F)CC(F)(CC(F)(C4)C2)C3)=N/C1=C\c1ccc2ncsc2c1"
Response line: 1.00

Prompt line: Try the molecule O=C1NC(NCC(O)C2CCCCC2)=N/C1=C\c1ccc2ncsc2c1 (racemic)
Response line: 3.04

Prompt line: Try the molecule "Cn1cc2cc(/C=C3\N=C(NC4CCCCC4)NC3=O)ccc2n1"
Response line: 3.57

Prompt line: Try the molecule "Cn1ncc2cc(/C=C3\N=C(NC4CCCCCC4)NC3=O)ccc21"
Response line: 3.20

Prompt line: Try the molecule "O=C1NC(N[C@H]2c3ccccc3C[C@@H]2O)=N/C1=C\c1ccc2ncsc2c1"
Response line: 3.19

Prompt line: Try the molecule O=C1NC(N[C@@H]2CCC[C@@H]2O)=N/C1=C\c1ccc2ncsc2c1 (racemic)
Response line: 3.08
